# experimental.system: GST-PPARG-LBD (Homo sapiens (Human), UniProt P37231)
# Sequence (P37231 238-503): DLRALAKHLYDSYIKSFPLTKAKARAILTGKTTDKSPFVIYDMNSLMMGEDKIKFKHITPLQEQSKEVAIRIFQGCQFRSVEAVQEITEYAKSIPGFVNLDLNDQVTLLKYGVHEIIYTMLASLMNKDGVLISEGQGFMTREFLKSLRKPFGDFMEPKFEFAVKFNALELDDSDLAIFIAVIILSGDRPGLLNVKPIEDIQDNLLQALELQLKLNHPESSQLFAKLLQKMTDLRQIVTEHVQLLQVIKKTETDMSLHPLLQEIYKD
# experimental.protocol: Lanthascreen PPARG competitive binding assay (Invitrogen, TR-FRET)
# setup.conditions: Lanthascreen competitive binding; NA = not active; inc = incomplete curve; read-out: IC50 (nM) Lantha
Rule: measured IC50 below 9 nM gets Yes; anything equal to or greater than 9 nM gets No.

Worked examples follow.
[
  {
    "compound": "C[C@H](NC(=O)c1ccc2c(ccn2Cc2ccc(-c3ccccc3O)cc2)c1)c1ccc([N+](=O)[O-])cc1",
    "class.label": "No"
  },
  {
    "compound": "Cc1c(C)n(Cc2ccc(-c3ccccc3C(=O)O)cc2)c2ccc(C(=O)NCc3ccc(Cl)cc3C(F)(F)F)cc12",
    "class.label": "Yes"
  },
  {
    "compound": "Cc1c(C)n(Cc2ccc(-c3ccccc3C(=O)O)cc2)c2ccc(C(=O)NCc3ccc(F)cc3F)cc12",
    "class.label": "No"
  },
  {
    "compound": "Cc1cc2cc(C(=O)N[C@@H](C)c3ccc(Br)cc3)ccc2n1Cc1ccc(-c2ccccc2C(=O)O)cc1",
    "class.label": "No"
  },
  {
    "compound": "Cc1c(C)n(Cc2ccc(-c3ccccc3C(=O)O)cc2)c2ccc(C(=O)N[C@@H](C)c3c(Cl)cccc3Cl)cc12",
    "class.label": "No"
  },
  {
    "compound": "CCC(NC(=O)c1ccc2c(c1)c(C)c(C)n2Cc1ccc(-c2ccccc2-c2nnn[nH]2)cc1)c1ccccc1 (stereo not drawn)",
    "class.label": "Yes"
  }
]

Just wondering, is IC50 of `Cc1c(C)n(Cc2ccc(-c3ccccc3C(=O)O)cc2)c2ccc(C(=O)NCc3cccc4ccccc34)cc12` below 9 nM?
No

IC50 under 9 nM? Item: `Cc1c(C)n(Cc2ccc(-c3ccccc3C(=O)O)cc2)c2ccc(C(=O)NCc3ccc(F)cc3)cc12`
Yes

API: query returns whether the compound falls strictly under 9 nM in IC50. Query: CCC(NC(=O)c1ccc2c(ccn2Cc2ccccc2-c2cccc(C(=O)O)c2)c1)c1ccccc1 (stereo not drawn)
Yes

Item `Cc1c(C)n(Cc2ccc(-c3ccccc3C#N)cc2)c2ccc(C(=O)N[C@@H](C)c3ccc(Br)cc3)cc12` : IC50 beneath 9 nM, strictly?
No

Please state whether IC50 is below 9 nM for `COc1cc(F)cc([C@H](C)NC(=O)c2ccc3c(c2)c(C)c(C)n3Cc2ccc(-c3ccccc3C(=O)O)cc2)c1`
No

Field: below-cutoff. Rule: recorded IC50 strictly less than 9 nM. Subject: `COc1cc(CNC(=O)c2ccc3c(c2)c(C)c(C)n3Cc2ccc(-c3ccccc3C(=O)O)cc2)cc(OC)c1`
No

In the record for `Cc1c(C)n(Cc2ccc(-c3ccccc3C(=O)O)cc2)c2ccc(C(=O)NCc3cccc(C(F)(F)F)c3)cc12` , is IC50 less than 9 nM?
No

I'd appreciate it if you could check whether `Cc1ccc(-c2ccc(Cn3ccc4cc(C(=O)N[C@@H](C)c5ccc([N+](=O)[O-])cc5)ccc43)cc2)cc1` has IC50 smaller than 9 nM.
No

Is it true that IC50 reported for `CC[C@@H](NC(=O)c1ccc2c(ccn2Cc2ccccc2-c2ccc(C(=O)O)cc2)c1)c1ccccc1` is less than 9 nM?
Yes

Does `Cc1c(C)n(Cc2ccc(-c3ccccc3C(=O)O)cc2)c2ccc(C(=O)NCc3ccc(C#N)cc3)cc12` have IC50 strictly under 9 nM?
No

Given the entry `Cc1c(C)n(Cc2ccc(-c3ccccc3C(=O)O)cc2)c2ccc(C(=O)NCc3ccc(N(C)C)cc3)cc12` , would its reported IC50 be below 9 nM?
No

Problem: For the compound `C[C@H](NC(=O)c1ccc2c(ccn2Cc2ccc(-c3ccccc3C(=O)OC(C)(C)C)cc2)c1)c1ccc([N+](=O)[O-])cc1` , is IC50 under 9 nM?
No

API: query returns whether the compound falls strictly under 9 nM in IC50. Query: `Cc1ccc(F)c([C@H](C)NC(=O)c2ccc3c(c2)c(C)c(C)n3Cc2ccc(-c3ccccc3C(=O)O)cc2)c1`
Yes

Bench note: check whether `Cc1c(C)n(Cc2ccc(-c3ccccc3C(=O)O)cc2)c2ccc(C(=O)N[C@@H](C)c3ccc(C4CC4)cn3)cc12` shows IC50 below 9 nM
Yes

For this compound, is IC50 lower than 9 nM? `Cc1c(C)n(Cc2ccc(-c3ccccc3C(=O)O)cc2)c2ccc(C(=O)N[C@H](C)c3ccc(C4CC4)nc3)cc12`
No
